Each recorded value in this set is attributed to paper PMC7822874.

- Test system: P. falciparum Dd2 (clone B2) asexual blood stage parasites
- measurementNotes: P. falciparum Dd2 asexual blood stage SYBR Green-I 72 h proliferation assay (qHTS)
- Type: cell-based, Plasmodium falciparum
- conditionsUsed: averaged P. falciparum asexual blood stage potency, log10 of AC50 in M
assayReadout: Pf ABS Log AC50 (M)

[[record]]
compound = "Cc1ccc(C)c(-n2c(-c3ccc(Br)cc3)csc2=NC(=O)c2ccccc2F)c1"
unittag = "M"
testresult = -5.187

[[record]]
compound = "O=C(Nc1ccc(Nc2ccncc2)cc1)c1ccc(Nc2ccnc3ccc([N+](=O)[O-])cc23)cc1"
unittag = "M"
testresult = -6.337

[[record]]
compound = "NS(=O)(=O)c1ccc(N/N=C/c2cn(-c3ccccc3)nc2-c2cccs2)cc1"
unittag = "M"
testresult = -6.762

[[record]]
compound = "O=C1NCc2ccccc2CC12CCCN(Cc1ccccc1)C2 (centres unmarked)"
unittag = "M"
testresult = -4.980

[[record]]
compound = "CCN(CC)Cc1cc2[nH]c3c4ccc(Cl)cc4ncc3c2cc1OC"
unittag = "M"
testresult = -6.700

[[record]]
compound = "Cc1ccccc1NC(=O)Nc1ccc2nc(N3CCN(C)CC3)cc(C)c2c1"
unittag = "M"
testresult = -5.825

[[record]]
compound = "CCOCCCNc1nc2cc(OC)c(OC)cc2c2nc(-c3ccccc3)nn12"
unittag = "M"
testresult = -6.675

[[record]]
compound = "O=C(c1ccc([N+](=O)[O-])o1)N1CCN(c2nc3c(F)cc(F)cc3s2)CC1"
unittag = "M"
testresult = -5.462


###

- System: luciferase-expressing P. berghei liver stage parasites in HepG2 cells
- measurementNotes: Inhibition of liver-stage development assay (ILSDA), Method 2 (WRAIR, 96-well)
- Format: cell-based, Plasmodium berghei
- conditionsUsed: Method 2; Decrease = decreasing P. berghei viability with dose, Increase = increasing signal, Inactive = no dose response
assayReadout: Max Resp (signal direction of the dose response)

[[record]]
molecule = "Oc1c(C(Nc2nccs2)c2ccc(C(F)(F)F)cc2)ccc2cccnc12 (stereo not shown) [MLS000774842-01]"
targetentity = "luciferase-expressing P. berghei liver stage parasites in HepG2 cells"
testresult = "Decrease"

[[record]]
molecule = "CC(=O)Nc1ccc(CN2CCc3nc(C(C)C)nc(-c4ccc(Cl)cc4)c3CC2)cc1 [NCGC00374598-01]"
targetentity = "luciferase-expressing P. berghei liver stage parasites in HepG2 cells"
testresult = "Decrease"

[[record]]
molecule = "CCC(CC)c1cc([C@H]2CN3CC[C@H]2C[C@@H]3CN[S+](=O)([O-])c2cccs2)nc(-c2ccncc2)n1 [NCGC00396883-01]"
targetentity = "luciferase-expressing P. berghei liver stage parasites in HepG2 cells"
testresult = "Decrease"


###

- System: HepG2
- conditionsUsed: human, hepg2 cells, 48 h
assayReadout: Log AC50 (M)

[[record]]
molecule = "CN(C)CCCNc1c2ccccc2nc2ccccc12 [MLS001198528-01]"
assayreadout = "Log AC50 (M)"
testresult = "-4.9143 M"

[[record]]
molecule = "CC(=O)Nc1ccc(NC2=Nc3ccccc3N3C2=Nc2c(c(C)nn2-c2ccccc2)C3c2ccccc2)cc1 (stereo not shown) [MLS000555438-01]"
assayreadout = "Log AC50 (M)"
testresult = "-4.3143 M"

[[record]]
molecule = "Cc1nc2c(=O)n(C)c(=O)nc-2n(C)n1 [MLS000528498-01]"
assayreadout = "Log AC50 (M)"
testresult = "-6.0643 M"

[[record]]
molecule = "CC(Sc1nc2ccccc2c(=O)n1C)C(=O)Nc1ccc2c(c1)OCCO2 (stereo not shown) [MLS002161477-01]"
assayreadout = "Log AC50 (M)"
testresult = "-4.3643 M"

[[record]]
molecule = "Cc1ccccc1Cn1c(CN2CCC(C(=O)NCCN(C)C)CC2)cc2ccccc21 [NCGC00137638-01]"
assayreadout = "Log AC50 (M)"
testresult = "-4.3643 M"

[[record]]
molecule = "CCN(CC)CCCN(c1ccccc1)C1Cc2ccccc2C1.Cl [NCGC00167576-01]"
assayreadout = "Log AC50 (M)"
testresult = "-4.5643 M"

[[record]]
molecule = "COc1ccc(/C=N/Nc2cc(C)nc3ccccc23)cc1 [MLS001210939-01]"
assayreadout = "Log AC50 (M)"
testresult = "-4.5143 M"

[[record]]
molecule = "C/C(=N\\Nc1ncnc2sc(C)c(C)c12)c1ccccn1 [MLS001176565-01]"
assayreadout = "Log AC50 (M)"
testresult = "-6.3143 M"

[[record]]
molecule = "CC1(C)N=C(N)N=C(N)N1c1ccc(OCCCOc2ccccc2)c(Cl)c1 [MLS000738223-01]"
assayreadout = "Log AC50 (M)"
testresult = "-5.1143 M"

[[record]]
molecule = "CCCCN(C)CCCNC(=O)Cn1ncc2c3ccccc3n(Cc3cc(C)ccc3C)c2c1=O [NCGC00114267-01]"
assayreadout = "Log AC50 (M)"
testresult = "-4.4643 M"

[[record]]
molecule = "CCN1C(=O)C2(CCN([S+](=O)([O-])c3cc(F)ccc3C)CC2)c2ccccc21 [NCGC00435872-01]"
assayreadout = "Log AC50 (M)"
testresult = "-4.4143 M"

[[record]]
molecule = "CCN1CC=C(c2c[nH]c3ccccc23)CC1 [MLS000093713-01]"
assayreadout = "Log AC50 (M)"
testresult = "-4.6143 M"

[[record]]
molecule = "CC(C(=O)N1CCCN(c2cc(-c3ccc(Cl)cc3)n[nH]2)CC1)c1ccccc1 (stereo not shown) [NCGC00436178-01]"
assayreadout = "Log AC50 (M)"
testresult = "-4.3643 M"

[[record]]
molecule = "O=C1CCN(Cc2ccc(C(F)(F)F)cc2)CCCC(c2nc(-c3cccnc3)no2)CCN1 (stereo not shown) [NCGC00465921-01]"
assayreadout = "Log AC50 (M)"
testresult = "-4.5643 M"

[[record]]
molecule = "CC(C)c1nc(-c2ccc(OC3CCN(C(=O)c4cc(F)ccc4F)C3)cc2)no1 (stereo not shown) [NCGC00441011-01]"
assayreadout = "Log AC50 (M)"
testresult = "-4.4643 M"

[[record]]
molecule = "CCOC(=O)c1sc(NC(=O)CNCc2ccccn2)c(C(=O)OCC)c1C [MLS001005083-01]"
assayreadout = "Log AC50 (M)"
testresult = "-4.3643 M"

[[record]]
molecule = "COc1ccc(NC(=O)c2ccc(Cl)c(S(=O)(=O)N3CCc4ccccc4C3)c2)cn1 [MLS000057537-01]"
assayreadout = "Log AC50 (M)"
testresult = "-4.4643 M"

[[record]]
molecule = "Cc1cc(N)c2cc(NC(=O)/C=C/c3ccccc3Cl)ccc2n1 [MLS000737665-01]"
assayreadout = "Log AC50 (M)"
testresult = "-4.3643 M"

[[record]]
molecule = "CC(C)(C)CC(C)(C)c1ccc(O)c(Cc2ccc(Cl)cc2Cl)c1 [NCGC00095016-01]"
assayreadout = "Log AC50 (M)"
testresult = "-4.6643 M"

[[record]]
molecule = "N=c1c2c(n(Cc3ccc(F)cc3)c3c1CCC3)CCCC2 [MLS000856097-01]"
assayreadout = "Log AC50 (M)"
testresult = "-4.7643 M"

[[record]]
molecule = "N=c1n(CCN2CCCCC2)c2ccccc2n1CC(O)COc1ccc(Cl)cc1Cl (stereo not shown) [NCGC00100256-01]"
assayreadout = "Log AC50 (M)"
testresult = "-4.5143 M"

[[record]]
molecule = "COc1ccc(CNc2ncnc3c2[nH]c2ccccc23)cc1 [MLS000768346-01]"
assayreadout = "Log AC50 (M)"
testresult = "-4.3643 M"

[[record]]
molecule = "CCCN(CCC)CCNC(=O)c1cc2c(-c3ccc(Cl)cc3)nn(C)c2s1 [NCGC00108997-01]"
assayreadout = "Log AC50 (M)"
testresult = "-4.3643 M"

[[record]]
molecule = "O=C(Nc1ccc([N+](=O)[O-])cc1)Nc1ccc(OC(F)F)c(Cl)c1 [MLS000581434-01]"
assayreadout = "Log AC50 (M)"
testresult = "-4.5143 M"

[[record]]
molecule = "O=C1CCN(Cc2ccc(F)cc2F)CCCC(c2nc(-c3cnccn3)no2)CCN1 (stereo not shown) [NCGC00465975-01]"
assayreadout = "Log AC50 (M)"
testresult = "-4.9143 M"

[[record]]
molecule = "COc1ccc(NC(=O)OC[C@H]2C[C@@H]3CCN2C[C@@H]3c2cc(C3CCCC3)nc(-c3ccncc3)n2)cc1 [NCGC00421346-01]"
assayreadout = "Log AC50 (M)"
testresult = "-4.3643 M"

[[record]]
molecule = "CCCCC(=O)NC(c1cccc([N+](=O)[O-])c1)c1c(OC(C)=O)ccc2ccccc12 (stereo not shown) [MLS000527046-01]"
assayreadout = "Log AC50 (M)"
testresult = "-4.3643 M"

[[record]]
molecule = "COc1ccc(C2=CC(c3ccc(F)cc3)n3ncc(C(=O)Nc4ccc(C)cc4)c3N2)cc1 (stereo not shown) [NCGC00127228-01]"
assayreadout = "Log AC50 (M)"
testresult = "-4.5143 M"

[[record]]
molecule = "COc1ccccc1CNCC(O)Cn1c2ccccc2c2ccccc21 (stereo not shown) [MLS000391556-01]"
assayreadout = "Log AC50 (M)"
testresult = "-4.4643 M"

[[record]]
molecule = "ClC(Cl)(Cl)c1nc2ccccc2n2nncc12 [MLS001171504-01]"
assayreadout = "Log AC50 (M)"
testresult = "-4.3643 M"

[[record]]
molecule = "c1ccc2cc3c(NCCN4CCOCC4)ccnc3cc2c1 [MLS000702892-01]"
assayreadout = "Log AC50 (M)"
testresult = "-4.3643 M"

[[record]]
molecule = "O=C(Nc1cccc(C(F)(F)F)c1)C1CCN([S+](=O)([O-])c2cccc3nsnc23)CC1 [NCGC00108239-01]"
assayreadout = "Log AC50 (M)"
testresult = "-4.3643 M"

[[record]]
molecule = "CCN1C(=O)C2(CCN([S+](=O)([O-])c3ccc(Cl)cc3C)CC2)c2ccccc21 [NCGC00435870-01]"
assayreadout = "Log AC50 (M)"
testresult = "-4.4643 M"

[[record]]
molecule = "N#Cc1ccc(NC(=O)Nc2ccc(Cl)cc2)cc1 [MLS000104525-01]"
assayreadout = "Log AC50 (M)"
testresult = "-4.4643 M"

